# Test Target: KRas(G12V) (Homo sapiens (Human), UniProt P01116, G12V)
# Sequence (P01116-2 other isoform, or with tags, fused parts or gaps G12V): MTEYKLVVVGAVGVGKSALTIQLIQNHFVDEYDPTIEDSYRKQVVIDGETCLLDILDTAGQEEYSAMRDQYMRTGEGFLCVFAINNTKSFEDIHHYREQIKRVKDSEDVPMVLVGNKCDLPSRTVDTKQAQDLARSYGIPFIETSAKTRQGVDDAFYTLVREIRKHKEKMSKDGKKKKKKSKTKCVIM
# Assay Name: KRas(G12V) GDP HTRF (BODIPY-GDP exchange TR-FRET)
Metric Name: IC50 (nM)

| Molecule | IC50, nM |
| --- | --- |
| Cc1cc(N)nc(-c2c(Cl)c3c4c(nc(OCC56CCCN5CCC6)nc4c2F)N([C@H](C)c2cccnc2N)CCO3)c1C(F)(F)F (atropisomer, axis not shown) | 0.06 |

A: Cc1cc(N)nc(-c2c(Cl)c3c4c(nc(OC[C@]5(C)CC(F)(F)CN5C)nc4c2F)N([C@H](C)c2cccnc2N)CCO3)c1C(F)(F)F (atropisomer, axis not shown) [Example 122a]
B: Cc1cc(N)nc(-c2c(Cl)c3c4c(nc(OC[C@H]5CC[C@@H]6CN(CC(F)(F)F)CCN56)nc4c2F)N([C@H](C)c2cccnc2N)CCO3)c1C(F)(F)F (atropisomer, axis not shown; (aR)) [Example 129b]
C: Cc1cc(N)nc(-c2cc3ncnc4c3c(c2Cl)OCCN4C2CCc3ccncc32)c1C(F)(F)F (centres unmarked)
D: Cc1cc(N)nc(-c2c(Cl)c3c4c(nc(OC[C@@H]5COCCN5)nc4c2F)N([C@H](C)c2cccnc2N)CCO3)c1C(F)(F)F (atropisomer, axis not shown)
Would you mind ranking these molecules by ascending IC50? Put the labels in the order asked and list them. D, B, A, C
(D: 0.08 nM, B: 0.32 nM, A: 0.5 nM, C: 1600 nM)

###

# Test Target: KRas(G12V) (Homo sapiens (Human), UniProt P01116, G12V)
# Assay Name: KRas(G12V) GDP HTRF (BODIPY-GDP exchange TR-FRET)
Metric Name: IC50 (nM)

Consider the reported IC50 for these compounds:
| Compound | Test Target | Unit Name | Endpoint Result |
| --- | --- | --- | --- |
| Cc1cc(N)nc(-c2c(Cl)c3c4c(nc(OC[C@@]56CCCN5CCOC6)nc4c2F)N([C@H](C)c2cccnc2N)CCO3)c1C(F)(F)F (atropisomer, axis not shown) [Example 128b] | KRas(G12V) (Homo sapiens (Human), UniProt P01116, G12V) | nM | 0.19 |
| Cc1cc(N)nc(-c2c(Cl)c3c4c(nc(OC(C)[C@@H]5CC(F)(F)CN5C)nc4c2F)N([C@H](C)c2cccnc2N)CCO3)c1C(F)(F)F (stereo partly shown) | KRas(G12V) (Homo sapiens (Human), UniProt P01116, G12V) | nM | 0.53 |

I: Cc1cc(N)nc(-c2cc3ncnc4c3c(c2Cl)OCCN4CCC2COC2)c1C(F)(F)F
II: Cc1cc(N)nc(-c2cc3ncnc4c3c(c2Cl)OCCN4[C@H](C)c2cncc(N)c2)c1C(F)(F)F
Which record shows the lower IC50: the first, I , or the second, II ? // return label of chosen record II
(II: 6.1 nM, I: 21000 nM)

###

# Test Target: KRAS G12D (Homo sapiens (Human), UniProt P01116, G12D)
# Sequence (P01116-2 other isoform, or with tags, fused parts or gaps G12D): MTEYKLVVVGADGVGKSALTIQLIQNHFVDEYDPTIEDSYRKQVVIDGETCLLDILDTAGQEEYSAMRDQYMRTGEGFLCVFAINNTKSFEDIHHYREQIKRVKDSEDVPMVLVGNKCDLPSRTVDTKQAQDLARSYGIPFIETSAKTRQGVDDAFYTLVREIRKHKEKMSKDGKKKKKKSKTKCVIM
# Assay Name: KRas (G12D) GDP HTRF (BODIPY-GDP exchange TR-FRET)
pIC50: −log10 of the molar value.
Metric Name: pIC50

| Molecule | Test Target | pIC50 |
| --- | --- | --- |
| C=C1CN2CCC[C@@]2(COc2nc3c4c(c(Cl)c(-c5nc(N)cc(C)c5C(F)(F)F)cc4n2)OCCN3CCN(C)C)C1 | KRAS G12D (Homo sapiens (Human), UniProt P01116, G12D) | 8.22 |

I: Cc1cc(N)nc(-c2cc3ncnc4c3c(c2Cl)OCCN4C2CCNC2)c1C(F)(F)F (stereo not drawn) [Example 506]
II: C=C1CN2CCC[C@@]2(COc2nc3c4c(c(Cl)c(-c5nc(N)cc(C)c5C(F)(F)F)c(F)c4n2)OCCN3CCN(C)C)C1 (single isomer, unassigned) [Example 513]
Please indicate which entry, I or II , has the lower recorded pIC50 value. // output: label of the selected item I
